experiment: activity coefficient (dimensionless); of the first substance listed, at infinite dilution; xn = mol fraction of the nth substance listed; conditions: 318.15 K; Liquid; Chromatography; x1 = 0
Please note: class 1 applies when activity coefficient is 3 or greater, and class 0 applies otherwise.

| COMPOUND | CLASS |
| --- | --- |
| C1CCCCC1 [cyclohexane] + CCn1cc[n+](C)c1.N#C[B-](C#N)(C#N)C#N | class 1 |
| CCO [ethanol] + CCn1cc[n+](C)c1.N#C[B-](C#N)(C#N)C#N | class 0 |
| CCCOCCC [dipropyl ether] + CCn1cc[n+](C)c1.N#C[B-](C#N)(C#N)C#N | class 1 |
| C1=CCCCC1 [cyclohexene] + CCn1cc[n+](C)c1.N#C[B-](C#N)(C#N)C#N | class 1 |
| CCCCCCCC [octane] + CCn1cc[n+](C)c1.N#C[B-](C#N)(C#N)C#N | class 1 |
| CCc1ccccc1 [ethylbenzene] + CCn1cc[n+](C)c1.N#C[B-](C#N)(C#N)C#N | class 0 |
| O [water] + CCn1cc[n+](C)c1.N#C[B-](C#N)(C#N)C#N | class 0 |
| Cc1ccccc1 [toluene] + CCn1cc[n+](C)c1.N#C[B-](C#N)(C#N)C#N | class 0 |
| CCCCCCC [heptane] + CCn1cc[n+](C)c1.N#C[B-](C#N)(C#N)C#N | class 1 |
| C1CCCCCCC1 [cyclooctane] + CCn1cc[n+](C)c1.N#C[B-](C#N)(C#N)C#N | class 1 |
| CCCCCCCCC [nonane] + CCn1cc[n+](C)c1.N#C[B-](C#N)(C#N)C#N | class 1 |
| C=CCCCC [hex-1-ene] + CCn1cc[n+](C)c1.N#C[B-](C#N)(C#N)C#N | class 1 |
| C#CCCCCCC [1-octyne] + CCn1cc[n+](C)c1.N#C[B-](C#N)(C#N)C#N | class 1 |
| COC(C)(C)C [2-methoxy-2-methylpropane] + CCn1cc[n+](C)c1.N#C[B-](C#N)(C#N)C#N | class 0 |
| CCCCC [pentane] + CCn1cc[n+](C)c1.N#C[B-](C#N)(C#N)C#N | class 1 |
| C#CCCCCC [1-heptyne] + CCn1cc[n+](C)c1.N#C[B-](C#N)(C#N)C#N | class 1 |
| C1CCCC1 [cyclopentane] + CCn1cc[n+](C)c1.N#C[B-](C#N)(C#N)C#N | class 1 |
| Cc1ccc(C)cc1 [1,4-dimethylbenzene] + CCn1cc[n+](C)c1.N#C[B-](C#N)(C#N)C#N | class 0 |
| CCC(=O)CC [pentan-3-one] + CCn1cc[n+](C)c1.N#C[B-](C#N)(C#N)C#N | class 0 |
| CCCO [propan-1-ol] + CCn1cc[n+](C)c1.N#C[B-](C#N)(C#N)C#N | class 0 |
| Cc1cccc(C)c1 [1,3-dimethylbenzene] + CCn1cc[n+](C)c1.N#C[B-](C#N)(C#N)C#N | class 0 |
| C1CCOC1 [tetrahydrofuran] + CCn1cc[n+](C)c1.N#C[B-](C#N)(C#N)C#N | class 0 |
| C1CCCCCC1 [cycloheptane] + CCn1cc[n+](C)c1.N#C[B-](C#N)(C#N)C#N | class 1 |
| CO [methanol] + CCn1cc[n+](C)c1.N#C[B-](C#N)(C#N)C#N | class 0 |
| C=CCCCCCC [oct-1-ene] + CCn1cc[n+](C)c1.N#C[B-](C#N)(C#N)C#N | class 1 |
| C#CCCCC [1-hexyne] + CCn1cc[n+](C)c1.N#C[B-](C#N)(C#N)C#N | class 1 |
| CC(C)CC(C)(C)C [2,2,4-trimethylpentane] + CCn1cc[n+](C)c1.N#C[B-](C#N)(C#N)C#N | class 1 |
| C=CCCCCC [1-heptene] + CCn1cc[n+](C)c1.N#C[B-](C#N)(C#N)C#N | class 1 |

====

experiment: activity coefficient (dimensionless); of the first substance listed, at infinite dilution; xn = mol fraction of the nth substance listed; conditions: 338.15 K; Liquid; Chromatography; x1 = 0
Below: a set of entries, each annotated with reported activity coefficient.

| MOLECULE | activity coefficient |
| --- | --- |
| C1CCCC1 [cyclopentane] + CCn1cc[n+](C)c1.N#C[B-](C#N)(C#N)C#N | 8.4 |
| CC(C)=O [acetone] + CCn1cc[n+](C)c1.N#C[B-](C#N)(C#N)C#N | 0.475 |
| CCCO [propan-1-ol] + CCn1cc[n+](C)c1.N#C[B-](C#N)(C#N)C#N | 1.39 |
| CCCCCC [hexane] + CCn1cc[n+](C)c1.N#C[B-](C#N)(C#N)C#N | 24.5 |
| CCC(=O)CC [pentan-3-one] + CCn1cc[n+](C)c1.N#C[B-](C#N)(C#N)C#N | 0.861 |
| C=CCCCC [hex-1-ene] + CCn1cc[n+](C)c1.N#C[B-](C#N)(C#N)C#N | 11.6 |

====

Below: a set of entries, each annotated with reported activity coefficient.
assay: activity coefficient (dimensionless); of the first substance listed, at infinite dilution; xn = mol fraction of the nth substance listed; conditions: 348.15 K; Liquid; Chromatography; x1 = 0

| MOLECULE | activity coefficient |
| --- | --- |
| CCCCC [pentane] + CCn1cc[n+](C)c1.N#C[B-](C#N)(C#N)C#N | 15.8 |
| CC(C)=O [acetone] + CCn1cc[n+](C)c1.N#C[B-](C#N)(C#N)C#N | 0.488 |
| CCO [ethanol] + CCn1cc[n+](C)c1.N#C[B-](C#N)(C#N)C#N | 1.05 |
| C1CCCCCCC1 [cyclooctane] + CCn1cc[n+](C)c1.N#C[B-](C#N)(C#N)C#N | 19.2 |
| CCCC(=O)CC [3-hexanone] + CCn1cc[n+](C)c1.N#C[B-](C#N)(C#N)C#N | 1.28 |
| O [water] + CCn1cc[n+](C)c1.N#C[B-](C#N)(C#N)C#N | 1.38 |
| CCCCCCCCCC [decane] + CCn1cc[n+](C)c1.N#C[B-](C#N)(C#N)C#N | 108 |
| C#CCCCC [1-hexyne] + CCn1cc[n+](C)c1.N#C[B-](C#N)(C#N)C#N | 3.74 |
| Cc1ccccc1C [1,2-dimethylbenzene] + CCn1cc[n+](C)c1.N#C[B-](C#N)(C#N)C#N | 2.24 |
| CCC(C)(C)OC [2-methoxy-2-methylbutane] + CCn1cc[n+](C)c1.N#C[B-](C#N)(C#N)C#N | 4.3 |
| CCCCCCC [heptane] + CCn1cc[n+](C)c1.N#C[B-](C#N)(C#N)C#N | 34.3 |
| CCCO [propan-1-ol] + CCn1cc[n+](C)c1.N#C[B-](C#N)(C#N)C#N | 1.3 |
| C1=CCCCC1 [cyclohexene] + CCn1cc[n+](C)c1.N#C[B-](C#N)(C#N)C#N | 6.01 |
| Cc1cccc(C)c1 [1,3-dimethylbenzene] + CCn1cc[n+](C)c1.N#C[B-](C#N)(C#N)C#N | 2.63 |
| C=CCCCC [hex-1-ene] + CCn1cc[n+](C)c1.N#C[B-](C#N)(C#N)C#N | 11.2 |
| CCCCO [butan-1-ol] + CCn1cc[n+](C)c1.N#C[B-](C#N)(C#N)C#N | 1.65 |
| CO [methanol] + CCn1cc[n+](C)c1.N#C[B-](C#N)(C#N)C#N | 0.788 |

====

experiment: activity coefficient (dimensionless); of the first substance listed, at infinite dilution; xn = mol fraction of the nth substance listed; details: 338.15 K; Liquid; Chromatography; x1 = 0
Could you please mark t for values of activity coefficient below 8 and f for values at or above it?

| COMPOUND | CLASS |
| --- | --- |
| Cc1ccccc1 [toluene] + CCn1cc[n+](C)c1.N#C[B-](C#N)(C#N)C#N | t |
| CCCCCCCC [octane] + CCn1cc[n+](C)c1.N#C[B-](C#N)(C#N)C#N | f |
| CCC(C)(C)OC [2-methoxy-2-methylbutane] + CCn1cc[n+](C)c1.N#C[B-](C#N)(C#N)C#N | t |
| CO [methanol] + CCn1cc[n+](C)c1.N#C[B-](C#N)(C#N)C#N | t |
| CCCCO [butan-1-ol] + CCn1cc[n+](C)c1.N#C[B-](C#N)(C#N)C#N | t |
| CCCCCCCCC [nonane] + CCn1cc[n+](C)c1.N#C[B-](C#N)(C#N)C#N | f |
| CCCCCCCCCC [decane] + CCn1cc[n+](C)c1.N#C[B-](C#N)(C#N)C#N | f |
| CCCCC [pentane] + CCn1cc[n+](C)c1.N#C[B-](C#N)(C#N)C#N | f |
| C1CCCCCC1 [cycloheptane] + CCn1cc[n+](C)c1.N#C[B-](C#N)(C#N)C#N | f |
| COC(C)(C)C [2-methoxy-2-methylpropane] + CCn1cc[n+](C)c1.N#C[B-](C#N)(C#N)C#N | t |
